Reference source: paper PMC4843017

Answer each item with its documented Kd.
- Tgt: T1, taxol-stabilized microtubules (α-/β-tubulin) (bovine, UniProt P81947 1-451; Q6B856 1-445)
- T1 construct: α-tubulin, named α-1B tubulin in the cross-linking analysis; β-tubulin, named β-2B tubulin in the cross-linking analysis; Polymer of α/β-tubulin dimers; Bought tubulin is likely a mixture of isotypes; In the polymerization assay (functional rows) the same tubulin was used unpolymerized; also called MTs; α-1B and β-2B tubulin; source: bought: Cytoskeleton, Inc; polymerized according to …
- Experimental protocol: co-sedimentation; Kd determination: 0-10 μM taxol-stabilized microtubules (tubulin dimer), 1 μM BSA, 1 μM protein of interest; 25 mM Hepes pH 7.5, 150 mM NaCl, 1 mM MgCl2, 1 mM EGTA, 2 mM DTE; 10 min room temperature; 350,000 g, 25 °C; gel densitometry, quadratic fit; apparent Kd
- Setup conditions: both partners purified

SKAP^159–225 (domain or fragment, human, UniProt Q9Y448 159-225, looked up, Small kinetochore-associated protein (SKAP); source: E. coli OverExpress C41 (DE3), purified (GSTrap FF, HiTrap Q FF, Superdex 200); not shown: GST, N-terminal, cleaved) VRKGYKPLSKQKSEEELKDKNQLLEAVNKQLHQKLTETQGELKDLTQKVELLEKFRDNCLAILESKG
~2500 nM

For the next question, use this binder.
For this binder ( SKAP^135–225 (domain or fragment, human, UniProt Q9Y448 135-225, looked up, Small kinetochore-associated protein (SKAP); Behaved as a trimer in AUC and cross-linking; also called WT; source: E. coli OverExpress C41 (DE3), purified (GSTrap FF, HiTrap Q FF, Superdex 200)) VTKITKLRRENGQMKATDTATRRNVRKGYKPLSKQKSEEELKDKNQLLEAVNKQLHQKLTETQGELKDLTQKVELLEKFRDNCLAILESKG ), measured Kd is ~580 nM
